# Assayed Target: Cad1 (UniProt P24813)
# Sequence: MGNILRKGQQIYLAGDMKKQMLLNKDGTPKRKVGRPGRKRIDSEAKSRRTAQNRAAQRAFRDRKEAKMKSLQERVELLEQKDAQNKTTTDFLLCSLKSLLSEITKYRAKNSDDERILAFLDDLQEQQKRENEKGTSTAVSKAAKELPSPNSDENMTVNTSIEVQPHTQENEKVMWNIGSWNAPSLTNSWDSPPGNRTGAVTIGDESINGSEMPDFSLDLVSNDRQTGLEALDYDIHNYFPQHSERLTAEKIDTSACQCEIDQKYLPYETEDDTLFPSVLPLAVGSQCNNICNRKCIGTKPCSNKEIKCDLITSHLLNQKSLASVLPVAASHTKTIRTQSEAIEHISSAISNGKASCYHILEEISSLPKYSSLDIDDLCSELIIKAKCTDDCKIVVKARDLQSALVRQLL
# Test Description: PBM E-score (8-mer binding enrichment) (E-score (-0.5 to 0.5)); higher = stronger / more preferred TF binding
# Assay Conditions: protein concentration: 100 nM; construct: GST-full length
The full ranking holds about 33,000 sequences; the median of “E-score (-0.5 to 0.5)” is about -0.0014, and the highest 2% start at about 0.25. The entries come from a sample that favours the highest values as a whole.
Parameter: PBM E-score
Reply: number alone, nothing else.

Q: State its PBM E-score on Cad1 (UniProt P24813): `GGCGACAC`
Result: 0.0142

Q: // map `CGCTACTA` to recorded PBM E-score (system: Cad1 (UniProt P24813))
Result: 0.276

Q: Param readout= PBM E-score; system= Cad1 (UniProt P24813); entry= `ACGGAGAC` ; returns value.
Result: 0.128

Q: Form field: PBM E-score recorded for `CATGACAA` with Cad1 (UniProt P24813) (enter value)
Result: 0.165

Q: Return PBM E-score measured with Cad1 (UniProt P24813) given this sequence: `AAATTTGG`
Result: 0.075

Q: Record `ACAGACAG` : what is its PBM E-score with Cad1 (UniProt P24813)?
Result: 0.0659

Q: For the record `ACTGACAC` , what value of PBM E-score is listed for Cad1 (UniProt P24813)?
Result: -0.0887

Q: Any idea what PBM E-score came out for `ATTATAAA` on Cad1 (UniProt P24813)?
Result: 0.276

Q: # returns recorded PBM E-score (system: Cad1 (UniProt P24813)) for `CTCATTCA`
Result: 0.0583

Q: Query for Cad1 (UniProt P24813): what PBM E-score does the record show for `CCGGAGAC` ?
Result: 0.036

Q: Hi! What's the reported PBM E-score for `TGTATAAA` on Cad1 (UniProt P24813)?
Result: 0.028

Q: Cad1 (UniProt P24813) / PBM E-score / `TCGGGGAA` : value?
Result: 0.0236

Q: Can you look up PBM E-score on Cad1 (UniProt P24813) for `GATGACAC` ?
Result: 0.0339

Q: // map `GCGGAGAC` to recorded PBM E-score (system: Cad1 (UniProt P24813))
Result: 0.267

Q: # query: PBM E-score | item `AGGTACAT` | system: Cad1 (UniProt P24813)
Result: -0.172

Q: // map `AAGATAGA` to recorded PBM E-score (system: Cad1 (UniProt P24813))
Result: 0.0137

Q: Notebook entry, Cad1 (UniProt P24813) assay: PBM E-score of `ATACTTGC` = ?
Result: 0.0566

Q: State its PBM E-score on Cad1 (UniProt P24813): `CTTCATGA`
Result: 0.207

Q: Which measured PBM E-score belongs to `GCTCAGCC` , tested on Cad1 (UniProt P24813)?
Result: -0.143

Q: Item: `ATTATAAG` Test system: Cad1 (UniProt P24813) Read-out: PBM E-score Value: ?
Result: 0.186

Q: Notebook: pull reported PBM E-score for Cad1 (UniProt P24813), entry `GAAGCCAA`
Result: -0.183

Q: Lookup: PBM E-score / Cad1 (UniProt P24813) / `CTTATAAG`
Result: -0.047

Q: Provide value of PBM E-score for this record tested with Cad1 (UniProt P24813): `GGCTTCAA`
Result: -0.139

Q: Param readout = PBM E-score; param system = Cad1 (UniProt P24813); param query = `AGCTACTA` ; response: value
Result: 0.0659

Q: What is its PBM E-score for Cad1 (UniProt P24813)? Entry: `GAATATTC`
Result: 0.338

Q: What reported PBM E-score corresponds to `AAATTTGA` on Cad1 (UniProt P24813)?
Result: 0.325

Q: What value of PBM E-score on Cad1 (UniProt P24813) does `CAATATTC` have?
Result: 0.0508

Q: Form entry - test system: Cad1 (UniProt P24813); read-out: PBM E-score; sequence: `ACTGACAT`
Result: -0.0482

Q: Recorded PBM E-score for `ACTGACAA` with Cad1 (UniProt P24813), please?
Result: 0.264

Q: Write down the reported PBM E-score of `AATTCGCC` , test system: Cad1 (UniProt P24813).
Result: 0.154

Q: Item: `CCTAGATA` Test system: Cad1 (UniProt P24813) Read-out: PBM E-score Value: ?
Result: -0.0467

Q: Look up PBM E-score with Cad1 (UniProt P24813) for this sequence: `ATCATTTC`
Result: 0.136

Q: Any idea what PBM E-score came out for `GGCCTTGA` on Cad1 (UniProt P24813)?
Result: 0.0013

Q: Entry `ACAGAAAC` , system Cad1 (UniProt P24813): what PBM E-score was measured?
Result: 0.116

Q: Write down the reported PBM E-score of `AGTTAAAA` , test system: Cad1 (UniProt P24813).
Result: 0.14

Q: Query PBM E-score on Cad1 (UniProt P24813) for `CCAAATAA`
Result: 0.15

Q: Identify the measured PBM E-score of `TGTGACAA` for Cad1 (UniProt P24813).
Result: 0.0395

Q: Test system Cad1 (UniProt P24813); read-out PBM E-score; what value for `TCTGACAA` ?
Result: 0.25

Q: Requested read-out PBM E-score, target or system Cad1 (UniProt P24813), entry `GTTATAAA`
Result: 0.184

Q: Form: Entry = `CTCCACCA` | System = Cad1 (UniProt P24813) | PBM E-score = ____
Result: -0.193

Q: Give PBM E-score (Cad1 (UniProt P24813)) of the following sequence: `AAATATTC`
Result: 0.249

Q: Find PBM E-score (Cad1 (UniProt P24813)) for the entry `GATGACAA`
Result: 0.304

Q: Can you look up PBM E-score on Cad1 (UniProt P24813) for `AGAGTTTG` ?
Result: 0.0139

Q: What reported PBM E-score corresponds to `CGAACTGA` on Cad1 (UniProt P24813)?
Result: -0.17

Q: Provide the documented PBM E-score with Cad1 (UniProt P24813) as the system for `AAATATTA`
Result: 0.298

Q: Identify the measured PBM E-score of `ATCAATCA` for Cad1 (UniProt P24813).
Result: 0.13

---

Please respond with reported PBM E-score for every item in the list.
# Assayed Target: Cad1 (UniProt P24813)
# Sequence: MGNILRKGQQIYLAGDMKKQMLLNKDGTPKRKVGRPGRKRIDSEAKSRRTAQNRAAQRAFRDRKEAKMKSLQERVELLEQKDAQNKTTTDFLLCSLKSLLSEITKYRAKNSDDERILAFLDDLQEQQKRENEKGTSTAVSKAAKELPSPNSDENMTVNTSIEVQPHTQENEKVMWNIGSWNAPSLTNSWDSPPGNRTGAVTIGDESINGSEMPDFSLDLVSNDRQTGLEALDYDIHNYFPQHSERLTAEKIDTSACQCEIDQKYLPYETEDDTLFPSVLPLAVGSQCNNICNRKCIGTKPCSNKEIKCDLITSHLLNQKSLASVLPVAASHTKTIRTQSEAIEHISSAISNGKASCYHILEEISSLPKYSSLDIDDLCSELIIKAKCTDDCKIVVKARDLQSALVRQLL
# Test Description: PBM E-score (8-mer binding enrichment) (E-score (-0.5 to 0.5)); higher = stronger / more preferred TF binding
# Assay Conditions: protein concentration: 100 nM; construct: GST-full length
The full ranking holds about 33,000 sequences; the median of “E-score (-0.5 to 0.5)” is about -0.0014, and the highest 2% start at about 0.25. Shown is part of a subset that was picked to be rich in the highest values.
Number, no unit, nothing else.

Q: Requested field: PBM E-score. Item: `AGGCATTA`
Result: -0.16

Q: Looking for the measured PBM E-score of `CTGTTAAC` , can you help?
Result: 0.258

Q: Bench note: what PBM E-score did `ATCGATGG` show?
Result: 0.0786

Q: State the recorded PBM E-score for this entry: `AAATCGTC`
Result: 0.0296

Q: // returns reported PBM E-score for input `CGCTATTA`
Result: 0.253

Q: Which PBM E-score reading was recorded for the sequence `ACGTTAAC` ?
Result: 0.102

Q: GET /values?readout=PBM E-score&item= `ATCCCAAT`
Result: -0.122

Q: Look up PBM E-score: `AAATCGTG`
Result: 0.263

Q: Tell me the measured PBM E-score of `ATATAGAA` , please.
Result: 0.00309

Q: Bench note: what PBM E-score did `AACCAATG` show?
Result: 0.109

Q: I have this sequence here, `ATATACTC` , and I need its recorded PBM E-score.
Result: -0.0465

Q: Which measured PBM E-score value corresponds to `AGCAGCGG` ?
Result: -0.0904

Q: May I ask what PBM E-score has been recorded for `TCACAGGA` ?
Result: -0.0436

Q: Look up PBM E-score: `AACCCGTG`
Result: -0.317

Q: Reported PBM E-score for `AAATAGTG` : what is it?
Result: 0.258

Q: Dear colleague, I am looking for the recorded PBM E-score of the following sequence: `AACCAGTA`
Result: 0.157

Q: Fill in the blank: the reported PBM E-score of `ATGTTAAC` is ____.
Result: 0.0833

Q: Any idea what PBM E-score was measured for `GTCAGACA` ?
Result: 0.116

Q: What does the data say about its PBM E-score? Entry: `CCGTTAAC`
Result: 0.0965

Q: // lookup PBM E-score for `ACATATTG`
Result: 0.0269

Q: GET /values?readout=PBM E-score&item= `AACCAATT`
Result: 0.297

Q: Field request: PBM E-score | item: `GGCTATTA`
Result: 0.175

Q: PBM E-score for `AAATAGTT` ?
Result: 0.129

Q: Value lookup for PBM E-score; key = `CCTGCCTA`
Result: -0.0584

Q: What PBM E-score value was documented for this sequence, `AGCTATTA` ?
Result: 0.0722

Q: Recorded PBM E-score for `ACATATTA` , please?
Result: 0.317

Q: Looking for the measured PBM E-score of `TAATATGA` , can you help?
Result: 0.133

Q: Need PBM E-score, item `GTGTTTAA`
Result: 0.233

Q: Reported PBM E-score, sequence `AACCAATC` : ____
Result: 0.0878

Q: What does the record list as PBM E-score for `CTATAATA` ?
Result: -0.101

Q: Which PBM E-score is reported for this sequence? `AGCCGCAT`
Result: -0.0263

Q: Fill blank: measured PBM E-score of the sequence `ACTATTGG` is ____.
Result: 0.025

Q: Please report the recorded PBM E-score for `CTTCTCGA` .
Result: 0.0254

Q: Using the record for `TCCGGGCA` , report its PBM E-score.
Result: 0.00134

Q: Given `GTATAAAA` , state its recorded PBM E-score.
Result: 0.18

Q: PBM E-score for `GCCGCGGC` ?
Result: 0.347

Q: Using the record for `CTGCGCGA` , report its PBM E-score.
Result: 0.13

Q: Would you mind telling me what PBM E-score value was observed for `TCTGAGCA` ?
Result: 0.0835

Q: For the sequence `AAATAGTC` , what PBM E-score is on record?
Result: -0.0981

Q: Which PBM E-score is reported for this sequence? `AAGGTGAG`
Result: -0.192

Q: Reported PBM E-score, sequence `GCGTTAAC` : ____
Result: 0.257

Q: Endpoint output: PBM E-score of `CCCGCTCC` . Value?
Result: -0.37

Q: Suppose we examine the sequence `AACCAGTT` ; what PBM E-score value has been reported?
Result: 0.27

Q: Find the recorded PBM E-score belonging to `AGCCATAT` and report it.
Result: -0.0728

Q: Requested field: PBM E-score. Item: `CGTAGTAC`
Result: -0.00804

Q: Item under review: `ACCCGCAC` . Reported PBM E-score?
Result: 0.0284
